meta.source: patent US10323018B2

Measured viability at 1.667 µM accompanies every entry in the list below.
- Tested on: PC3 cells
- ASSAY OVERVIEW: PC3 growth inhibition (Cell-titer glo, 72 hours)
- Assay type: cell-based
- CONDITION PARAMETERS: Homo sapiens, PC-3, 72 h, read-out: Percent Viability, PC3 cells, compound concentration 1.667 μM, 72 hours
Report as a plain number; the unit % is understood.

CCSc1nc(-c2ccc(F)cc2)nc2cc(C(=O)NCCCc3ncc[nH]3)ccc12	1
CCOc1cc(-c2ccn(C)c(=O)c2)nc2cc(C(=O)NCCCc3cnn[nH]3)ccc12	1
CCOc1cc(-c2cccc(S(C)(=O)=O)c2)nc2cc(C(=O)NCCCc3nnc[nH]3)ccc12	2
CCOc1cc(-c2ccn(C)c(=O)c2)nc2cc(C(=O)NCCCc3cc[nH]n3)ccc12	2
CCOc1cc(-c2cnc(Cl)cc2C)nc2cc(C(=O)NCCCc3nnc[nH]3)ccc12	3
CCOc1cc(-c2ccc(C(F)(F)F)nc2)nc2cc(C(=O)NCCCc3nnc[nH]3)ccc12	2

Ask: Hello, please tell me recorded viability at 1.667 µM for this one: CCOc1c(F)c(-c2ccc(F)cc2)nc2cc(C(=O)NCCCc3nnc[nH]3)ccc12
Result: 2

Ask: Given CCOc1cc(-c2ccccc2)nc2cc(C(=O)NCCCc3nnc[nH]3)ccc12 , respond with its viability at 1.667 µM.
Result: 2

----------
- Test system: PC3 cells
- ASSAY OVERVIEW: PC3 growth inhibition (Cell-titer glo, 72 hours)
- Assay type: cell-based
- CONDITION PARAMETERS: Homo sapiens, PC-3, 72 h, read-out: Percent Viability, PC3 cells, compound concentration 1.667 μM, 72 hours
viability at 1.667 µM reference

CCOc1cc(-c2ccc(F)cc2)nc2cc(C(=O)NCCCc3cnn[nH]3)ccc12	2%
CCOc1cc(-c2ccc(C)nc2)nc2cc(C(=O)NCCCc3cc[nH]n3)ccc12	2%
CCOc1cc(-c2cnccc2OC)nc2cc(C(=O)NCCCc3nnc[nH]3)ccc12	2%

Shifting focus to the compound that follows.
Ask: Give me measured viability at 1.667 µM, please, for this compound: CCNc1cc(OCC)c2ccc(C(=O)NCCCc3ncc[nH]3)cc2n1
Result: 11%

----------
Parameter: viability at 1.667 µM. Scope: all listed entries.
- System: PC3 cells
- ASSAY OVERVIEW: PC3 growth inhibition (Cell-titer glo, 72 hours)
- Type: cell-based
- CONDITION PARAMETERS: Homo sapiens, PC-3, 72 h, read-out: Percent Viability, PC3 cells, compound concentration 1.667 μM, 72 hours
Write it as a number; the unit % goes unstated.

Worked examples, 3 compounds total:
CCOc1cc(-c2ccc(F)cc2OC)nc2cc(C(=O)NCCCc3nnc[nH]3)ccc12	1
CCOc1cc(-c2ccc(F)cc2OC)nc2cc(C(=O)NCCCc3cnn[nH]3)ccc12	2
CCOc1cc(-c2ccc(OC)nc2)nc2cc(C(=O)NCCc3c[nH]nn3)ccc12	2

Ask: Report measured viability at 1.667 µM; entry is CCOc1cc(-c2ccnc(C)c2)nc2cc(C(=O)NCCCc3ccn[nH]3)ccc12
Result: 2

Ask: Return the recorded viability at 1.667 µM value; entry: CCOc1cc(-c2ccnc(OC)c2)nc2cc(C(=O)NCCCc3cnn[nH]3)ccc12
Result: 2

Ask: State its viability at 1.667 µM for this compound: CCOc1cc(-c2ccc(F)cc2)nc2cc(C(=O)NCCCc3nccs3)ccc12
Result: 58

Ask: Using the record for O=C(NCCCc1ncc[nH]1)c1ccc2c(C3CC3)nc(-c3ccc(Cl)cc3)nc2c1 , state its measured viability at 1.667 µM.
Result: 1

Ask: For the compound CCOc1cc(-c2ccc(=O)n(C)c2)nc2cc(C(=O)NCCc3c[nH]nc3C)ccc12 , give its reported viability at 1.667 µM.
Result: 1
